Tested on: MS2 coat protein
Assay explanation: apparent KD of MS2 coat protein; designed switch direction (-1 OFF switch, 1 ON switch): 1; higher = weaker reporter binding
Study conditions: input ligand: none
Property: apparent KD of MS2 coat protein (nM)
Lab book: enter the figure in nM, no units written.

### Prompt Look up apparent KD of MS2 coat protein for this sequence: GUAGCAUACCGAGGAUAUUCAUAUUAUAAACAUGAGGAUCACCCAUGUGGUCGAUUACGACCUUGGGAGAAGGCGGAAUGCUAC [Xeonanis - 20 Mod36] (Eterna round: R96, puzzle: Same State NG 2)
### Response 725

### Prompt Moving on to AGCUAUUAAUCAGGAUAUAGUGACAUGAGGAUCACCCAUGUAUUGAUGAUUAAAUGUGGUCACCACUAGAAGGGAUUACUAACA [SameState NG2 #48] (Eterna round: R96, puzzle: Same State NG 2)
### Response 26.9

### Prompt Moving on to ACAUGAGACUAAGGAUAUGGUGUACCUACAUGUGACAUGAGGAUCACCCAUGUGGUAAGUAUGACUCAGAAGGUAGAGAUAUGU [Equivalance 75 - Jieux - Same State NG 2] (Eterna round: R96, puzzle: Same State NG 2)
### Response 436

### Prompt Moving on to GACCGCGAGGAAGGAUAUCGAGCCUUAUUGGCUCGAGAAGGUCCAUAAAGGACAUGAGGAUCACCCAUGUGGUGAGAAGCGGUC [Mat - Same State NG 1 - JL mod - D76] (Eterna round: R96, puzzle: Same State NG 1)
### Response 1160

### Prompt Moving on to GGAGCCGGCCUAGGAUAUUUCAUAAGAAAACAUGAGGAUCACCCAUGUAGGCCAGAAGGCCUUGGGAAGAAGGAGGUCGGCUCC [Loop Effect - G26] (Eterna round: R96, puzzle: Same State NG 2)
### Response 35.1
